Measured Binding selectivity ratio (Bcl-XL Ki/Bcl-2 Ki) values are reported for all entries that follow.
Test system: GST-Bcl-2
Assay: TR-FRET binding assay, Bcl-2
Details: TR-FRET Ki values

Guide cases for Binding selectivity ratio (Bcl-XL Ki/Bcl-2 Ki), answers given:
> print(dat)
                    structure.smiles.string   result
1  CC1(C)CCC(CN2CCN(c3ccc(C(=O)NS(=O)(=O)c4ccc(NCCOC(F)(F)F)c([N+](=O)[O-])c4)c(Oc4cccc5[nH]ccc45)c3)CC2)=C(c2ccc(Cl)cc2)C1  >1104.2
2  CC1(C)CCC(CN2CCN(c3ccc(C(=O)NS(=O)(=O)c4ccc(NCCC5CCOCC5)c([N+](=O)[O-])c4)c(Oc4ccc5[nH]ccc5c4)c3)CC2)=C(c2ccc(Cl)cc2)C1  >1179.1

Now take the following molecule into account.
Prompt: Which Binding selectivity ratio (Bcl-XL Ki/Bcl-2 Ki) is reported for this molecule? COCCOCCNc1ccc(S(=O)(=O)NC(=O)c2ccc(N3CCN(CC4=C(c5ccc(Cl)cc5)CC(C)(C)CC4)CC3)cc2Oc2ccc3[nH]ccc3c2)cc1[N+](=O)[O-]
Response: 1415.7
